- Tested on: T98G human glioblastoma cells
- EXPERIMENT: MTT cytotoxicity assay, T98G cells
- Type: cell-based
- CONDITION_INFO: MTT, 72 h
REPORTED_METRIC: IC50 (µM)
Numbers only; they are read as µM.

// IC50 lookup, molecule = N.N.[Cl][Pt][Cl] [Cisplatin, cisplatin, reference compound] , result: 16.9

---

- System: human peripheral blood mononuclear cells (PBMCs)
- EXPERIMENT: MTT cytotoxicity assay, PBMCs
- Type: cell-based
- CONDITION_INFO: 72 h
REPORTED_METRIC: IC50 (µM)
Numbers only; they are read as µM.

// IC50 lookup, compound = N.N.[Cl][Pt][Cl] [Cisplatin, cisplatin, reference compound] , result: 34.7

---

// reported SI (selectivity index) for each item listed
- Tested on: Jurkat human leukemic T-cells
- EXPERIMENT: MTT cytotoxicity assay, Jurkat cells
- Type: cell-based
- CONDITION_INFO: SI = IC50 for PBMCs/IC50 for Jurkat cells
Please state the value as a number alone, without comment.

Below, 3 compounds whose answers are already recorded.
CC1(C)CC[C@]2(C(=O)OCc3ccccc3)CC[C@]3(C)C(=CC[C@@H]4[C@@]5(C)CC[C@H](O)[C@@](C)(CO)[C@@H]5CC[C@]43C)[C@@H]2C1 | 2.20
CC(=O)Nc1cccc(NCC2(C)C(O)CCC3(C)C2CCC2(C)C3CC=C3C4CC(C)(C)CCC4(C(=O)O)CCC32C)c1 (stereo not shown) | 3.57
C[C@@H](NCC1(C)C(O)CCC2(C)C1CCC1(C)C2CC=C2C3CC(C)(C)CCC3(C(=O)O)CCC21C)c1ccccc1 (stereo partly shown) | 7.90

Now for a further compound.
// SI (selectivity index) lookup, compound = N.N.[Cl][Pt][Cl] [Cisplatin, cisplatin, reference compound] , result: 7.12

---

- System: U87 human glioblastoma cells
- EXPERIMENT: MTT cytotoxicity assay, U87 cells
- Format: cell-based
- CONDITION_INFO: MTT, 72 h
REPORTED_METRIC: IC50 (µM)
Numbers only; they are read as µM.

// IC50 lookup, compound = N.N.[Cl][Pt][Cl] [Cisplatin, cisplatin, reference compound] , result: 20.9

---

// reported IC50 for each item listed
- Test system: T98G human glioblastoma cells
- EXPERIMENT: MTT cytotoxicity assay, T98G cells
- Format: cell-based
- CONDITION_INFO: Homo sapiens, T98G; MTT, 72 h
Numbers only; they are read as µM.

Below, 5 molecules whose answers are already recorded.
C[C@@H](NCC1(C)C(O)CCC2(C)C1CCC1(C)C2CC=C2C3CC(C)(C)CCC3(C(=O)O)CCC21C)c1ccccc1 (stereo partly drawn) | 8.19
CC1(C)CC[C@]2(C(=O)OCc3ccccc3)CC[C@]3(C)C(=CC[C@@H]4[C@@]5(C)CC[C@H](O)[C@@](C)(CO)[C@@H]5CC[C@]43C)[C@@H]2C1 | 9.86
CC1(C)CC[C@]2(C(=O)OCc3ccccc3)CC[C@]3(C)C(=CC[C@@H]4[C@@]5(C)CC[C@H](O)[C@@](C)(C=O)[C@@H]5CC[C@]43C)[C@@H]2C1 | 61.1
C[C@H]1[C@H](C)CC[C@]2(C(=O)OCc3ccccc3)CC[C@]3(C)C(=CC[C@@H]4[C@@]5(C)C[C@@H](O)[C@H](O)[C@@](C)(CO)[C@@H]5CC[C@]43C)[C@H]12 | 20.5
CC1(C)CC[C@]2(C(=O)OCc3ccc(C#N)cc3)CC[C@]3(C)C(=CC[C@@H]4[C@@]5(C)CC[C@H](O)[C@@](C)(C=O)[C@@H]5CC[C@]43C)[C@@H]2C1 | 56.6

// IC50 lookup, molecule = C[C@H]1[C@H](C)CC[C@]2(C(=O)OCc3ccccc3)CC[C@]3(C)C(=CC[C@@H]4[C@@]5(C)CC[C@H](O)C(C)(C)[C@@H]5CC[C@]43C)[C@H]12 , result: 64.1

---

// reported melting point for each item listed

Below, 3 compounds whose answers are already recorded.
CC1(C)CCC2(C(=O)O)CCC3(C)C(=CCC4C5(C)CCC(O)C(C)(CNCc6ccccc6)C5CCC43C)C2C1 (stereo not shown) | 246 to 249 °C
C[C@H](NCC1(C)C(O)CCC2(C)C1CCC1(C)C2CC=C2C3CC(C)(C)CCC3(C(=O)O)CCC21C)c1ccccc1 (stereo partly shown) | 240 to 243 °C
CC(=O)Nc1cccc(NCC2(C)C(O)CCC3(C)C2CCC2(C)C3CC=C3C4CC(C)(C)CCC4(C(=O)O)CCC32C)c1 (stereo not shown) | 265 to 267 °C

Now for a further compound.
// melting point lookup, compound = C[C@@H](NCC1(C)C(O)CCC2(C)C1CCC1(C)C2CC=C2C3CC(C)(C)CCC3(C(=O)O)CCC21C)c1ccccc1 (stereo partly shown) , result: 240 to 243 °C

---

- Test system: T98G human glioblastoma cells
- EXPERIMENT: MTT cytotoxicity assay, T98G cells
- Assay type: cell-based
- CONDITION_INFO: Homo sapiens, T98G; MTT, 72 h
// reported IC50 for each item listed

CC(=O)Nc1cccc(NCC2(C)C(O)CCC3(C)C2CCC2(C)C3CC=C3C4CC(C)(C)CCC4(C(=O)O)CCC32C)c1 (stereo not shown) [Compound 13] | 20.2 µM
CC1(C)CC[C@]2(C(=O)OCc3cc(C(F)(F)F)cc(C(F)(F)F)c3)CC[C@]3(C)C(=CC[C@@H]4[C@@]5(C)CC[C@H](O)[C@@](C)(C=O)[C@@H]5CC[C@]43C)[C@@H]2C1 [Compound 8] | > 100 µM
CC1(C)CCC2(C(=O)O)CCC3(C)C(=CCC4C5(C)CCC(O)C(C)(CNCc6ccccc6)C5CCC43C)C2C1 (stereo not shown) [Compound 11] | > 100 µM

Now for a further compound.
// IC50 lookup, compound = C[C@H](NCC1(C)C(O)CCC2(C)C1CCC1(C)C2CC=C2C3CC(C)(C)CCC3(C(=O)O)CCC21C)c1ccccc1 (stereo partly shown) [Compound 12] , result: > 100 µM

---

- Tested on: U251 human glioblastoma cells
- EXPERIMENT: MTT cytotoxicity assay, U251 cells
- Type: cell-based
- CONDITION_INFO: MTT, 72 h
REPORTED_METRIC: IC50 (µM)
Numbers only; they are read as µM.

// IC50 lookup, molecule = N.N.[Cl][Pt][Cl] [Cisplatin, cisplatin, reference compound] , result: 7.7

---

// reported IC50 for each item listed
- Tested on: T98G human glioblastoma cells
- EXPERIMENT: MTT cytotoxicity assay, T98G cells
- Format: cell-based
- CONDITION_INFO: Homo sapiens, T98G; MTT, 72 h

CC1(C)[C@@H](O)CC[C@]2(C)[C@H]3C(=O)C=C4[C@@H]5C[C@@](C)(C(=O)OCc6ccccc6)CC[C@]5(C)CC[C@@]4(C)[C@]3(C)CC[C@@H]12 [Compound 3] | > 100 µM
C=C(C)[C@@H]1CC[C@]2(C(=O)OCc3ccccc3)CC[C@]3(C)[C@H](CC[C@@H]4[C@@]5(C)CC[C@H](O)C(C)(C)[C@@H]5CC[C@]43C)[C@@H]12 [Compound 2] | > 100 µM

// IC50 lookup, compound = CC1(C)CC[C@]2(C(=O)OCc3ccccc3)CC[C@]3(C)C(=CC[C@@H]4[C@@]5(C)CC[C@H](O)C(C)(C)[C@@H]5CC[C@]43C)[C@@H]2C1 [Compound 5] , result: > 100 µM
